All figures here come from paper PMC5808845.

- System: GST-TRF1 (human, UniProt P54274 1-439)
- Sequence (P54274 whole entry): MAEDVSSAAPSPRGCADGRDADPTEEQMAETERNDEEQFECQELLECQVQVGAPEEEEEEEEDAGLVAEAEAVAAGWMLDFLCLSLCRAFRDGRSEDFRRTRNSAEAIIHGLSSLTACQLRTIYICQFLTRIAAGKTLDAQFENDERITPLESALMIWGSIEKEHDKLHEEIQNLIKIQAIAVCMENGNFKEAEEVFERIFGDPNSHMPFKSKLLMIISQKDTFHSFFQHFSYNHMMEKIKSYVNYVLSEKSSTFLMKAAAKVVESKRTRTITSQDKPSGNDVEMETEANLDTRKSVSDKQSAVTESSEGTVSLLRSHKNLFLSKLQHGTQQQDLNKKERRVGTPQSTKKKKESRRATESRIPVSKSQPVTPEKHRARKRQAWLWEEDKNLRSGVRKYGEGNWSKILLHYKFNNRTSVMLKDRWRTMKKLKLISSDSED
- Method description: EMSA
Assay metric: binding result

Problem: What value of measured binding result is listed for TTAGGGTTAGGGTTAGGGTTAGGGTTAGGG (ssDNA) [(TTAGGG)5 DNA] ?
Solution: no binding

Problem: What value of measured binding result is listed for AGAGAUUGCCUGACGUCAGAGAGCUAGCGA (ssRNA) [random RNA] ?
Solution: no binding

Problem: What value of measured binding result is listed for CCCUAACCCUAACCCUAACCCUAACCCUAA (ssRNA) [(CCCUAA)5 RNA] ?
Solution: no binding

Problem: What value of measured binding result is listed for TATCGATAAGCTTGATATCGAATTCCTGCA (ssDNA) [random DNA] ?
Solution: no binding
